The origin of these recorded values is patent USRE47078E1.

# test-protocol: Solubility of the polymorphs at different pH (HPLC assay)
# Assay type: physicochemical
# run-conditions: phosphate buffer, pH 4.6, aqueous buffer, thermodynamic from solid, pH 4.6; read-out: Solubility, After 24 hours
measure-name: solubility at 24 h (µg/mL)
Just the number please, in µg/mL, no unit attached.

What the record says about COCCCC(=O)NCc1ccc(C(F)(F)F)cc1 [Polymorphic Form A] : solubility at 24 h is 145

====

# test-protocol: Solubility of the polymorphs at different pH (HPLC assay)
# Type: physicochemical
# run-conditions: buffer at pH 6.8 (buffer type not named for this pH), pH 6.8, aqueous buffer, thermodynamic from solid, pH 6.8; read-out: Solubility, After 24 hours
measure-name: solubility at 24 h (µg/mL)
Just the number please, in µg/mL, no unit attached.

What the record says about COCCCC(=O)NCc1ccc(C(F)(F)F)cc1 [Polymorphic Form A] : solubility at 24 h is 164

====

# test-protocol: Acute toxicity in mouse
# run-conditions: in vivo, ip, single, dose-range 200-1000
measure-name: LD50

What the record says about COCCCC(=O)NCc1ccc(C(F)(F)F)cc1 [Polymorphic Form A] : LD50 is ~800 mg/kg

====

# test-protocol: Solubility of the polymorphs at different pH (HPLC assay)
# Type: physicochemical
# run-conditions: phosphate buffer, pH 3, aqueous buffer, thermodynamic from solid, pH 3.0 (phosphate buffer); read-out: Solubility, After 24 hours
measure-name: solubility at 24 h (µg/mL)
Just the number please, in µg/mL, no unit attached.

What the record says about COCCCC(=O)NCc1ccc(C(F)(F)F)cc1 [Polymorphic Form A] : solubility at 24 h is 151

====

# test-protocol: Solubility of the polymorphs at different pH (HPLC assay)
# Format: physicochemical
# run-conditions: phosphate buffer, pH 4.6, aqueous buffer, thermodynamic from solid, pH 4.6; read-out: Solubility, Initial evaluation
measure-name: solubility at 30 min (µg/mL)
Just the number please, in µg/mL, no unit attached.

What the record says about COCCCC(=O)NCc1ccc(C(F)(F)F)cc1 [Polymorphic Form A] : solubility at 30 min is 132

====

# test-protocol: Solubility of the polymorphs at different pH (HPLC assay)
# Type: physicochemical
# run-conditions: phosphate buffer, pH 3, aqueous buffer, thermodynamic from solid, pH 3.0 (phosphate buffer); read-out: Solubility, Initial evaluation
measure-name: solubility at 30 min

What the record says about COCCCC(=O)NCc1ccc(C(F)(F)F)cc1 [Polymorphic Form A] : solubility at 30 min is 0.117 mg/mL

====

# test-protocol: Solubility of the polymorphs at different pH (HPLC assay)
# Format: physicochemical
# run-conditions: buffer at pH 6.8 (buffer type not named for this pH), pH 6.8, aqueous buffer, thermodynamic from solid, pH 6.8; read-out: Solubility, Initial evaluation
measure-name: solubility at 30 min
In your response, the unit should come after the numeric value.

What the record says about COCCCC(=O)NCc1ccc(C(F)(F)F)cc1 [Polymorphic Form A] : solubility at 30 min is 106 µg/mL

====

# test-protocol: Solubility of the polymorphs at different pH (HPLC assay)
# Assay type: physicochemical
# run-conditions: acetic acid, pH 3, aqueous buffer, thermodynamic from solid, pH 3.0 (acetic acid); read-out: Solubility, Initial evaluation
measure-name: solubility at 30 min
In your response, the unit should come after the numeric value.

What the record says about COCCCC(=O)NCc1ccc(C(F)(F)F)cc1 [Polymorphic Form A] : solubility at 30 min is 124 µg/mL
